Data provenance: ChEMBL document CHEMBL1201862

Item-by-item account of GI50
# Test system: SF-295
# run_description: NCI tumour cell line growth inhibition, 48 h
Calls of active or inactive are those of the source. Cut-off read from the data, not from the text of the source: active = GI50 up to about 1.1 µM and inactive = higher.
measured_endpoint: GI50

molecule: COC(=O)C(=O)C(C(=O)Nc1cccc(C)c1C)C1Sc2ccccc2NC1=O (stereo unspecified)
measured_endpoint: GI50
result: 12.1 µM (inactive)

molecule: CNC1C(=O)C(C)C(O)(C(CC(C)C(O)/C=C/C=C/CNC(=O)C(C)(C)C(O)\C(C)=C/C=C\C=C\Cc2cnc(C)o2)OC)C12C(=O)OC2C.CNC1C(=O)C(C)C(O)(C(CC(C)C(O)/C=C/C=C/CNC(=O)C(C)(C)C(O)\C(C)=C/C=C\C=C\Cc2cnc(C)o2)OC)C12C(=O)OC2COC (stereo unspecified)
measured_endpoint: GI50
result: 0.528 µM (active)

molecule: CCN1CCCCC(=N\O)/C(=N/O)CCCC1
measured_endpoint: GI50
result: > 100 µM (inactive)

molecule: O=C(O)CCCSc1nc2ccccc2s1
measured_endpoint: GI50
result: > 100 µM (inactive)

molecule: O=C(O)c1cc(CC2Cc3cc4c(cc3C2=O)CCC4)cc2c1CCC2 (stereo unspecified)
measured_endpoint: GI50
result: > 100 µM (inactive)

molecule: O=C(O)c1ccccc1SCc1cccc2c(=O)c3ccc(Cl)cc3oc12
measured_endpoint: GI50
result: 20.2 µM (inactive)

molecule: CC(=O)Oc1ccc2c(c1OC(C)=O)CCC1C2=CC[C@]2(C)C(=O)CCC12 (stereo partly specified)
measured_endpoint: GI50
result: 12.9 µM (inactive)

molecule: CC1(C)/C(=N\NC(N)=O)C2CCC1C2 (stereo unspecified)
measured_endpoint: GI50
result: > 100 µM (inactive)

molecule: Clc1ccc(OCCSCCCCCCCCCCSCCOc2ccc(Cl)cc2)cc1
measured_endpoint: GI50
result: > 100 µM (inactive)

molecule: COc1cc(OC)cc(-c2nc(O)c3ccccc3n2)c1
measured_endpoint: GI50
result: 29 µM (inactive)

molecule: CC1CNC(c2ccc(COc3ccc(C4=NC(C)CN4)cc3)cc2)=N1 (stereo unspecified)
measured_endpoint: GI50
result: 43.4 µM (inactive)

molecule: O=C(c1ccc(Cl)cc1)c1cnc(Nc2ccccc2Cl)s1
measured_endpoint: GI50
result: 21.5 µM (inactive)

molecule: CC(=O)NNc1nc(C)c(C(/C=C/c2ccc(Cl)cc2)=N\N=C(N)N)s1
measured_endpoint: GI50
result: > 100 µM (inactive)

molecule: CC(C)C(C/C=C1/CC(CO)(COC(=O)CC(C(C)C)C(C)C)OC1=O)C(C)C (stereo unspecified)
measured_endpoint: GI50
result: 0.259 µM (active)

molecule: COc1ccc(CNc2nc(NCc3ccc(OC)c(OC)c3)nc(NC3CCCCC3)n2)cc1
measured_endpoint: GI50
result: 2.04 µM (inactive)

molecule: Cc1nc(-n2nc(-c3ccccc3)cc2-c2ccccc2)sc1C(=O)/C=C/c1ccc(Cl)cc1
measured_endpoint: GI50
result: 15.3 µM (inactive)

molecule: N#CC1C(=O)SC2c3ccccc3C(=O)c3ccccc3C12 (stereo unspecified)
measured_endpoint: GI50
result: > 10 µM (inactive)

molecule: N#C[C@@H](c1nc2ccccc2s1)c1ncccc1[N+](=O)[O-]
measured_endpoint: GI50
result: 4.1 µM (inactive)

molecule: O=C1O[C@]2(c3ccccc3)C(c3ccccc3)=C[C@]2(C(=O)c2ccccc2)C1=O
measured_endpoint: GI50
result: 47 µM (inactive)

molecule: N=C(N)N/N=C/c1c(-c2ccc(Cl)cc2)nc2sccn12
measured_endpoint: GI50
result: 1.64 µM (inactive)

molecule: CC1=CC(=O)[C@@H](O)[C@]2(C)[C@H]3[C@@]4(O)OC[C@@]35[C@@H](C[C@@H]12)OC(=O)C(OC(=O)CC1=CCCC1)[C@H]5[C@@H](C)[C@H]4O (stereo partly specified)
measured_endpoint: GI50
result: 0.0649 µM (active)

molecule: CO[C@H]1C[C@H](n2cc(C)c(=O)[nH]c2=O)O[C@@H]1CO
measured_endpoint: GI50
result: > 100 µM (inactive)

molecule: COc1ccc(N2N=NN(C(C)C)/C2=C(/Cl)c2nnnn2-c2ccc(OC)cc2)cc1
measured_endpoint: GI50
result: 16.6 µM (inactive)

molecule: CCCCCC(=O)Nc1[nH]nnc1C(N)=O
measured_endpoint: GI50
result: > 100 µM (inactive)

molecule: COCn1c2ccc(OC(C)=O)cc2c2c(=O)oc(C)nc21
measured_endpoint: GI50
result: > 100 µM (inactive)

molecule: O=c1[nH]nc(-c2cccc([N+](=O)[O-])c2)[nH]1
measured_endpoint: GI50
result: > 100 µM (inactive)

molecule: CCOC(=O)C12CCCC1(O)N(NC(=O)c1cccc(Cl)c1)C(C)=C2C(=O)OC (stereo unspecified)
measured_endpoint: GI50
result: 72.4 µM (inactive)

molecule: CN(C)CCCNC(=O)c1cc(NC(=O)c2cc(NC(=O)[C@@H]3C[C@H]3C(=O)Nc3cc(C(=O)Nc4cc(C(=O)NCCCN(C)C)n(C)c4)n(C)c3)cn2C)cn1C
measured_endpoint: GI50
result: > 100 µM (inactive)

molecule: O=C(O)C[n+]1cn(NC(=O)Cc2ccccc2)cn1
measured_endpoint: GI50
result: > 10 µM (inactive)

molecule: O=S(O)CCCCSSCCCCS(=O)(=O)S
measured_endpoint: GI50
result: 35.5 µM (inactive)

molecule: Nc1ccc(Sc2c3ccccc3nc3ccccc23)cc1
measured_endpoint: GI50
result: 19.1 µM (inactive)
